Molecular target: hP2X4 (human purinergic P2X receptor subtype 4) (Homo sapiens)
Sequence (Q99571 1-404 isoform Q99571-2): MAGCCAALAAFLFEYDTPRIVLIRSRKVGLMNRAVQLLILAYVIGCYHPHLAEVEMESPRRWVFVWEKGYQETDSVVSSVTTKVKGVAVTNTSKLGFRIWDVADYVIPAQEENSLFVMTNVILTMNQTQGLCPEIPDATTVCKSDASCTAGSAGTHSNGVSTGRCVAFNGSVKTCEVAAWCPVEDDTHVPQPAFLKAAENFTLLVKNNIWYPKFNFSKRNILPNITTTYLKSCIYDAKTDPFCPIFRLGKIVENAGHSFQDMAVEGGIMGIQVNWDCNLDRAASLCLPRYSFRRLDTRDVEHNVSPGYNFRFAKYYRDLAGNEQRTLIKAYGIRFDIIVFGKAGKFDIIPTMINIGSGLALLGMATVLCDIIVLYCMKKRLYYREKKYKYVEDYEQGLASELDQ
Assay: FLIPR assay of intracellular calcium increase induced by activation of hP2X4 expressed in HEK293 cells (agonist BZ-ATP 2.5 μM)
Type: cell-based
Conditions: HEK293 cells stably expressing hP2X4, FLIPR, numeric values, read-out: P2X4 IC50
Doc: threshold 20 nM (exclusive). Items with IC50 beneath it return Fulfilled; others return Not fulfilled.

>  <smiles-representation>
CC(C)CCn1ncc2c(S(N)(=O)=O)cc(NC(=O)Cc3ccccc3Cl)cc21

>  <target-system>
hP2X4 (human purinergic P2X receptor subtype 4) (Homo sapiens)

>  <assigned-class>
Fulfilled

$$$$
>  <smiles-representation>
NS(=O)(=O)c1cc(NC(=O)Cc2ccccc2Cl)cc2n[nH]cc12

>  <target-system>
hP2X4 (human purinergic P2X receptor subtype 4) (Homo sapiens)

>  <assigned-class>
Fulfilled

$$$$
>  <smiles-representation>
NS(=O)(=O)c1cc(NC(=O)Cc2ccccc2Cl)cc2nn(CC(F)F)cc12

>  <target-system>
hP2X4 (human purinergic P2X receptor subtype 4) (Homo sapiens)

>  <assigned-class>
Not fulfilled

$$$$
>  <smiles-representation>
NS(=O)(=O)c1cc(NC(=O)Cc2ccccc2Cl)cc2cn(CC3CC3)nc12

>  <target-system>
hP2X4 (human purinergic P2X receptor subtype 4) (Homo sapiens)

>  <assigned-class>
Fulfilled

$$$$
>  <smiles-representation>
CCCn1ncc2c(S(N)(=O)=O)cc(NC(=O)Cc3ccccc3Cl)cc21

>  <target-system>
hP2X4 (human purinergic P2X receptor subtype 4) (Homo sapiens)

>  <assigned-class>
Fulfilled

$$$$
>  <smiles-representation>
NS(=O)(=O)c1cc(NC(=O)Cc2ccccc2Cl)cc2nn(C(F)F)cc12

>  <target-system>
hP2X4 (human purinergic P2X receptor subtype 4) (Homo sapiens)

>  <assigned-class>
Not fulfilled

$$$$
>  <smiles-representation>
NS(=O)(=O)c1cc(NC(=O)Cc2ccccc2Cl)cc2nn(CC3CC3)cc12

>  <target-system>
hP2X4 (human purinergic P2X receptor subtype 4) (Homo sapiens)

>  <assigned-class>
Not fulfilled

$$$$
>  <smiles-representation>
CC(C)Cn1ncc2c(S(N)(=O)=O)cc(NC(=O)Cc3ccccc3Cl)cc21

>  <target-system>
hP2X4 (human purinergic P2X receptor subtype 4) (Homo sapiens)

>  <assigned-class>
Fulfilled

$$$$
>  <smiles-representation>
CC(C)CCn1cc2c(S(N)(=O)=O)cc(NC(=O)Cc3ccccc3Cl)cc2n1

>  <target-system>
hP2X4 (human purinergic P2X receptor subtype 4) (Homo sapiens)

>  <assigned-class>
Fulfilled

$$$$
>  <smiles-representation>
N#Cc1nc2c(S(N)(=O)=O)cc(NC(=O)Cc3ccccc3Cl)cc2[nH]1

>  <target-system>
hP2X4 (human purinergic P2X receptor subtype 4) (Homo sapiens)

>  <assigned-class>
Not fulfilled

$$$$
>  <smiles-representation>
NS(=O)(=O)c1cc(NC(=O)Cc2ccccc2Cl)cc2c1cnn2-c1ccc(F)cc1

>  <target-system>
hP2X4 (human purinergic P2X receptor subtype 4) (Homo sapiens)

>  <assigned-class>
Not fulfilled

$$$$
>  <smiles-representation>
CC(C)n1cc2c(S(N)(=O)=O)cc(NC(=O)Cc3ccccc3Cl)cc2n1

>  <target-system>
hP2X4 (human purinergic P2X receptor subtype 4) (Homo sapiens)

>  <assigned-class>
Fulfilled

$$$$
>  <smiles-representation>
NS(=O)(=O)c1cc(NC(=O)Cc2ccccc2Cl)cc2c1cnn2CC(F)F

>  <target-system>
hP2X4 (human purinergic P2X receptor subtype 4) (Homo sapiens)

>  <assigned-class>
Not fulfilled

$$$$
>  <smiles-representation>
Cn1cc2c(S(N)(=O)=O)cc(NC(=O)Cc3ccccc3Cl)cc2n1

>  <target-system>
hP2X4 (human purinergic P2X receptor subtype 4) (Homo sapiens)

>  <assigned-class>
Fulfilled

$$$$
>  <smiles-representation>
CCCn1cc2c(S(N)(=O)=O)cc(NC(=O)Cc3ccccc3Cl)cc2n1

>  <target-system>
hP2X4 (human purinergic P2X receptor subtype 4) (Homo sapiens)

>  <assigned-class>
Fulfilled

$$$$
>  <smiles-representation>
CC(C)OCCn1cc2c(S(N)(=O)=O)cc(NC(=O)Cc3ccccc3Cl)cc2n1

>  <target-system>
hP2X4 (human purinergic P2X receptor subtype 4) (Homo sapiens)

>  <assigned-class>
Fulfilled

$$$$
>  <smiles-representation>
Cn1ncc2c(S(N)(=O)=O)cc(NC(=O)Cc3ccccc3Cl)cc21

>  <target-system>
hP2X4 (human purinergic P2X receptor subtype 4) (Homo sapiens)

>  <assigned-class>
Fulfilled

$$$$
